- Test system: HL-60(TB) leukemia
- PROTOCOL NOTES: NCI tumour cell line growth inhibition, 48 h
PROPERTY LABEL: TGI

# count of solved cases: 10
1. Clc1cc2nnn(C3CCCO3)c2cc1Cl (stereo unspecified)	> 100 µM
2. COC(=O)c1ccc(NCC2=C(Br)C(=O)C=CC2=O)cc1Cl	> 100 µM
3. Cc1csc(-n2c(C)nc3cc(Cl)ccc3c2=O)n1	> 100 µM
4. N#Cc1nc(-c2cccc(-c3nc(C#N)c(N)o3)n2)oc1N	> 100 µM
5. C/C(=N\NS(=O)(=O)c1ccc([N+](=O)[O-])cc1)c1ccc[n+]([O-])n1	> 22.6 µM
6. CN1CCN(c2ccc3nc(-c4ccc(OCCCCN5CCN(CCCCN6C(=O)c7cccc8cccc(c78)C6=O)CC5)cc4)[nH]c3c2)CC1	> 100 µM
7. O=S(=O)(O)SCCNCCCCCC1CCCCC1	> 100 µM
8. NC(=O)Oc1ccccc1	> 100 µM
9. COc1cc(C(C#N)NNc2nc(C)cc(=O)[nH]2)cc(OC)c1OC (stereo unspecified)	> 100 µM
10. COc1ccc(C(=O)c2cc3c(N)c(C(=O)Nc4cccc(OC)c4)sc3nc2C)cc1	1.52 µM

Would you mind giving TGI for every compound in the list below?
1. COc1cc2c3c(cc(Cl)nc3c1OC)C(O)(CC(=O)c1ccccc1)C(=O)N2 (stereo unspecified)
2. CCOc1cc2c(cc1O)C(N)C[C@@H]1[C@@H]2CC[C@]2(C)[C@@H](O)CC[C@@H]12 (stereo partly specified)
3. COCCN1C(=O)C2c3[nH]c4ccccc4c3C3CCC(C(C)(C)C)CC3C2C1=O (stereo unspecified)
4. CCOC(=O)CCC(NC(=O)c1ccc(Nc2nc3ccccc3nc2C(=O)OCC)cc1)C(=O)OCC (stereo unspecified)
5. CC/C(N)=N\NC(=O)OC(C)(C)C

Solution:
["3.68 µM", "46.5 µM", "37.6 µM", "> 100 µM", "> 100 µM"]

Would you mind giving TGI for every compound in the list below?
1. COc1cc(/C=N/NC(=O)c2ccccc2Nc2cccc(C(F)(F)F)c2)cc(OC)c1OC
2. O=C(Nc1cccc(C(F)(F)F)c1)c1cc2ccccc2cc1O
3. CC(=O)[C-](C(C)=O)c1ccccc1.CC(=O)[C-](C(C)=O)c1ccccc1.CC(=O)[C-](C(C)=O)c1ccccc1.[Cl-].[Zr+4]

Solution:
4.73 µM
12.1 µM
> 100 µM

Would you mind giving TGI for every compound in the list below?
1. CCCCCCCCCCCCCCCCCC(=O)NCC(COP(=O)(O)O)OCC (stereo unspecified)
2. c1ccc(-c2ccnc3c2ccc2c(-c4ccccc4)ccnc23)cc1
3. C(=C/c1nc2ccccc2o1)/c1ccc2c(c1)OCO2
4. Cc1noc(/N=C2\C=C(Nc3onc(C)c3C)C(=O)c3ccccc32)c1C
5. C=C1CC2[C@H](C)C(=O)CCC2(C)C2=C1C1CCC(C(C)CCC(=C)C(C)C(=O)O)C1(C)CC2=O (stereo partly specified)
6. O=C1N(c2ccccc2)C(=S)/C(=C/c2ccc(Cl)cc2)N1c1ccc(Cl)cc1

Solution:
> 100 µM
3.69 µM
> 96.5 µM
> 100 µM
31.4 µM
74.4 µM

Would you mind giving TGI for every compound in the list below?
1. O=C(c1ccc2ccccc2c1)c1c(C(F)(F)F)n([O-])c2ccc(F)cc2[n+]1=O
2. O=C1c2cc([N+](=O)[O-])sc2C(=O)c2c([N+](=O)[O-])csc21
3. C[C@H](CCC(=O)NCC(=O)O)[C@H]1CC[C@H]2[C@@H]3[C@H](O)C[C@@H]4C[C@H](O)CC[C@]4(C)[C@H]3CC[C@]12C
4. Cc1cc(=O)oc2c(CNC(CC(C)C)C(=O)O)c(O)ccc12 (stereo unspecified)
5. Nc1nc(N)c2c(n1)NC(c1sc(Cl)nc1Cl)CC(c1ccc3c(c1)OCO3)=N2 (stereo unspecified)
6. COc1ccc(CNc2nc3ccccc3nc2C(=O)O)cc1
7. COC(=O)C(C(=O)C(N)=O)c1csc(-n2nc(-c3ccccc3)cc2-c2ccccc2)n1 (stereo unspecified)

Solution:
["2.23 µM", "0.112 µM", "> 100 µM", "> 100 µM", "13.3 µM", "> 100 µM", "> 31.6 µM"]

###

Exercise: for every item that follows, state its recorded TGI.
- System: T-47D breast
- PROTOCOL NOTES: NCI tumour cell line growth inhibition, 48 h

# count of solved cases: 5
1. COC(=O)c1cc(/C=C\c2cc(OC)ccc2OC)ccc1OC	52.1 µM
2. Cc1ccc(-c2n[nH]c(=O)c3noc(-c4ccc(C)cc4)c23)cc1	> 100 µM
3. CCOc1cc2c(cc1O)C(N)C[C@@H]1[C@@H]2CC[C@]2(C)[C@@H](O)CC[C@@H]12 (stereo partly drawn)	> 100 µM
4. O=C1CC(c2ccccc2)S(=O)c2ccccc2N1 (stereo not drawn)	> 100 µM
5. COc1cccc(NC2=C(Cl)C(=O)N(Cc3ccc(Cl)cc3)C2=O)c1	> 100 µM

Would you mind giving TGI for every compound in the list below?
1. O=C(NCCCCCN1CCC2(CCCCC2)CC1)C(C1CCCCC1)C1CCCCC1
2. O=C(c1ccc2ccccc2c1)c1c(C(F)(F)F)n([O-])c2ccc(F)cc2[n+]1=O

Solution:
8.43 µM
4.05 µM

###

- Tested on: NCI-H23 lung
- PROTOCOL NOTES: NCI tumour cell line growth inhibition, 48 h
Exercise: for every item that follows, state its recorded GI50.

Would you mind giving GI50 for every molecule in the list below?
1. COc1cccc2c1cc1c3c(cc4c(c32)OCO4)C(=O)N1
2. COc1ccc(-c2nc(C(=O)c3ccccc3)n(CC(=O)c3ccc(Cl)cc3)c2-c2ccc(OC)cc2)cc1
3. O=C(/C=C/c1ccc([N+](=O)[O-])cc1)c1cccc(Nc2nc(Nc3ccccc3)nc(Nc3ccccc3)n2)c1

Solution:
1. 3.45 µM
2. > 100 µM
3. 17.5 µM

Briefly, GI50 measured for C=C(C)[C@@H]1CC[C@]2(CO)CC[C@]3(C)[C@H](CC[C@@H]4[C@@]5(C)CC[C@H](NCO)C(C)(C)[C@@H]5CC[C@]43C)[C@@H]12 : 0.869 µM

###

- Test system: MOLT-4 leukemia
- PROTOCOL NOTES: NCI tumour cell line growth inhibition, 48 h
Where a SMILES comes first, the peptide text is derived from it. The star is where a group is joined. Trt = c1ccc(C(c2ccccc2)(c2ccccc2)*)cc1; Cbz = O=C(OCc1ccccc1)*
PROPERTY LABEL: TGI

1) CCOC(=O)CCC(NC(=O)c1ccc(Nc2nc3ccccc3nc2C(=O)OCC)cc1)C(=O)OCC (centres undefined)	> 100 µM
2) CC1=C(N2CC2)C(=O)c2ccccc2C1=O	16.3 µM
3) Cc1ccccc1NC(=O)Cc1csc(N=Nc2c(O)[nH]c3ccccc23)n1	> 100 µM
4) N#CC(C(=O)CCCC(=O)Nc1ccc(Cl)cc1Cl)c1ccc(Cl)cc1 (centres undefined)	> 100 µM
5) COC(=O)C(CSC(c1ccccc1)(c1ccccc1)c1ccccc1)NC(=O)C(CC(N)=O)NC(=O)OCc1ccccc1 (stereo not drawn) (Cbz-Asn-Cys(Trt)-OMe; configuration not given here)	5.2 µM
6) CCNC(=S)N/N=C(\C)c1cccc(C)n1	> 100 µM

Would you mind giving TGI for every molecule in the list below?
1. O=C(/C=C/c1ccccc1)CCC1C(=O)NC(=S)NC1=O
2. COC(=O)c1ccc(NCC2=C(Br)C(=O)C=CC2=O)cc1Cl
3. O=C(N/N=C\c1ccc([N+](=O)[O-])s1)c1ccncc1

Solution:
1. > 100 µM
2. > 100 µM
3. > 63.2 µM

###

- Tested on: CCRF-CEM leukemia
- PROTOCOL NOTES: NCI tumour cell line growth inhibition, 48 h
PROPERTY LABEL: TGI

# count of solved cases: 2
1) COC(=O)C(C(=O)C(N)=O)c1csc(-n2nc(-c3ccccc3)cc2-c2ccccc2)n1 (stereo not drawn)	> 31.6 µM
2) Cc1csc(-n2c(C)nc3cc(Cl)ccc3c2=O)n1	> 100 µM

Lab note: next molecule to report on.
Briefly, TGI measured for [CH3][Sn]1([CH3])[O]CC(COc2cc(Cl)c(Cl)cc2Cl)[O]1 (stereo not drawn) : > 100 µM

###

- System: NCI-H23 lung
- PROTOCOL NOTES: NCI tumour cell line growth inhibition, 48 h
PROPERTY LABEL: TGI

# count of solved cases: 4
1) O=C1C=Cc2ncccc2C1=O	39.6 µM
2) O=C1C(c2c(O)[nH]c3ccc(S(=O)(=O)NCCO)cc23)=Nc2ccccc21	> 100 µM
3) CCCCCCCCCCCCO[P+](=O)OCCCCCCCCCCCC	> 100 µM
4) NS(=O)(=O)c1ccc(N=Nc2ccc(O)c(C(=O)O)c2)cc1	> 100 µM

Would you mind giving TGI for every compound in the list below?
1. COc1ccc(C2=Nc3c/c(=C\c4c(O)[nH]c5cc(Cl)ccc45)ccc3=N2)cc1
2. CCOc1cc2c(cc1O)C(N)C[C@@H]1[C@@H]2CC[C@]2(C)[C@@H](O)CC[C@@H]12 (some centres not stated)
3. O=C(/C=C/C1C(=O)NC(=O)NC1=O)CC(=O)C(=O)Nc1cc(Cl)c(Cl)cc1Cl
4. CCCCCCCCCCCCCCCCOCC(O)CO (configuration not stated)
5. O=P(O)(O)CN1CCNCCN(CP(=O)(O)O)CC1
6. O=C(Nc1nc2ccccc2s1)c1cc(-c2ccc(F)cc2)n2nc(-c3ccccc3)cc2n1
7. CN(C)/C=C/C=C(/C=N/S(=O)(=O)C(F)(F)F)C1C=CN(S(=O)(=O)C(F)(F)F)C=C1

Solution:
24.2 µM
> 100 µM
> 100 µM
37.2 µM
> 100 µM
> 100 µM
56.6 µM

Would you mind giving TGI for every compound in the list below?
1. CCCCCCCCCCCCCCCCCC(=O)NCC(COP(=O)(O)O)OCC (configuration not stated)
2. COC(=O)/C(=N\Nc1nnc(C)n1N)C(C#N)c1ccccc1 (configuration not stated)
3. O=C(Nc1ccc(Cl)cc1)c1cc(S(=O)(=O)Nc2n[nH]c(=O)n2-c2ccccc2)c(S)cc1Cl
4. O=C(CCCCCCCCC(=O)N/N=C\c1cc(Cl)ccc1O)N/N=C\c1cc(Cl)ccc1O

Solution:
1. 30.1 µM
2. > 56.1 µM
3. > 100 µM
4. > 67.3 µM

Would you mind giving TGI for every compound in the list below?
1. Cc1cc(Br)cc(C)c1NC(=O)C(=O)Nn1c(=S)[nH]c2ccccc2c1=O
2. N#C/C(=C\c1ccc2[nH]ccc2c1)C(=O)c1ccc(O)c(O)c1
3. CCc1cc(Cc2ccc(C)c(NC(=O)C(=O)C3C(=O)NC(=O)NC3=O)c2CC)cc(C)c1NC(=O)C(=O)C1C(=O)NC(=O)NC1=O

Solution:
["> 100 µM", "> 100 µM", "> 100 µM"]
